study.target: EGFR L858R (Homo sapiens (Human), UniProt P00533, L858R)
Sequence (P00533 25-1210 L858R): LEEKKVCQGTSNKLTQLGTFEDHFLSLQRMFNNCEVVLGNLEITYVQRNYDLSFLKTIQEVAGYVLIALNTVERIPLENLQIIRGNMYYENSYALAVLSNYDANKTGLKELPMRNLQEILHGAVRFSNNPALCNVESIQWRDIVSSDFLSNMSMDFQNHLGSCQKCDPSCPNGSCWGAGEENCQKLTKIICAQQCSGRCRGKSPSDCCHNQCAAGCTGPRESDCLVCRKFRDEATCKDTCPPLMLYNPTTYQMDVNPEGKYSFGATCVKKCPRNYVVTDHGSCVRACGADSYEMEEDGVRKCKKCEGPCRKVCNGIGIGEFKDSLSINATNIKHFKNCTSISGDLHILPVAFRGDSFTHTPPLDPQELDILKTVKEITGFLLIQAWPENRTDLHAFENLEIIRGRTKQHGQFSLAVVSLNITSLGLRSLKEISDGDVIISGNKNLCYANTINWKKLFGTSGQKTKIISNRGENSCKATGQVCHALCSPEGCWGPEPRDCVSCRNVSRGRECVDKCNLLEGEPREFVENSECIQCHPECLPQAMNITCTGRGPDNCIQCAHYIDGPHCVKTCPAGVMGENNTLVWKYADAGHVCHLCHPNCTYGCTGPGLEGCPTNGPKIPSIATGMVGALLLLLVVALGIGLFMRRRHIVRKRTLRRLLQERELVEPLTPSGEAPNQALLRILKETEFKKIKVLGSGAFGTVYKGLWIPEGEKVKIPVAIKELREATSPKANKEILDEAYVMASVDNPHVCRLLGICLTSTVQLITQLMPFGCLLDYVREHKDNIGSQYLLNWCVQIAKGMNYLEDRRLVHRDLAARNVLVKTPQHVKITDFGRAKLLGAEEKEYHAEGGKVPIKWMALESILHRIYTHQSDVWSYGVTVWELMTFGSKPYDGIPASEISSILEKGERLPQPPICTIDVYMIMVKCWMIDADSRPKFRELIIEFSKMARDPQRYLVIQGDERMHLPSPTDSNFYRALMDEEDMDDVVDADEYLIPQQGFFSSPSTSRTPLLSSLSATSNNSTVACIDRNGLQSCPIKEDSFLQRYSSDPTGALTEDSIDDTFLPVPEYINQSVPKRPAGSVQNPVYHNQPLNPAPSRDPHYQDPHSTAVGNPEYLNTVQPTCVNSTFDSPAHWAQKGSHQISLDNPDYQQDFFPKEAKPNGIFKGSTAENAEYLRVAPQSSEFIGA
method: HTRF-based EGFR biochemical assay (L858R)
test.parameters: 100 μM ATP, enzyme 0.1 nM
Counter-ions that a name gives are not always drawn.
reported.property: IC50 (nM)

COc1cccc2[nH]c(C(c3cc(F)ccc3O)N3Cc4ccc(-c5ccc(C6CCN(C)CC6)cc5)cc4C3=O)nc12 (stereo not drawn)	10
CN1CCC2(c3ccc(-c4cc(F)c5c(=O)n(C(c6nc7ccccc7[nH]6)c6cc(F)ccc6O)ccc5c4)cc3)CC2C1 (stereo not drawn) [Compound 110, dihydrochloride]	3
CN1CCC(c2ccc(-c3ccc4c(c3)C(=O)N(C(c3nc5ccccc5[nH]3)c3cc(F)ccc3O)C4)c(F)c2)CC1 (stereo not drawn)	2
Cc1cccc2[nH]c(C(c3cc(F)ccc3O)N3Cc4ccc(-c5ccc(C6CCN(C)CC6)cc5)cc4C3=O)nc12 (stereo not drawn)	5
CN1CCC(c2ccc(-c3ccc4c(c3)C(=O)N([C@@H](c3nc5ccccc5[nH]3)c3cc(F)ccc3O)C4)cc2)CC1	0.3
